- protocol: NCI Yeast Anticancer Drug Screen. Data for the mec2-1 strain (AID 157)
- experimental_conditions: S. cerevisiae mec2-1 strain, at 50.0 µM (retest, dose inferred, filed as 5.0), hits give high values
Compounds without any hit were thinned out: in the full panel of roughly 79,000, 15% have a hit.
experimental_readout: growth inhibition (%)
One number for each entry, in %.

// below: answered compounds
Cc1ccc(Nc2n[nH]c(=S)s2)cc1 :: 55
CC(C)(O)c1ccccc1C(c1ccccc1)c1ccccc1 :: 42
CCCCCCCCN1C(=O)c2ccccc2C1=O :: 13

# batch: return growth inhibition for each of the 8 compounds below
1. CC(C)c1[nH]nc(C(N)=O)c1N=NN(C)C
2. C=C(CCCO)[C@@H]1CC[C@@](C)(O)[C@H]1C
3. COc1cc2c(cc1C[N+](C)(C)CSc1ccccc1)-c1ccccc1CC2
4. N#CC(=S)Nc1cccc(Cl)c1
5. BrCc1ccccc1C(c1ccccc1)c1ccccc1
6. Cc1c(-c2ccccc2)[nH]c2ccccc12
7. COC(=O)c1ccc2c(c1)Cc1ccccc1-2
8. CO[C@@]12[C@H](COC(N)=O)C3=C(C(=O)C(C)=C(N)C3=O)N1C[C@@H]1N[C@@H]12

Result ::
-16
93
99
64
98
85
-4
80

====

- protocol: NCI Yeast Anticancer Drug Screen. Data for the rad50 strain (AID 155);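 note: 0% = growth of vehicle-only cultures of the same strain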
- experimental_conditions: S. cerevisiae rad50 strain growth inhibition; at 1.2 µM; hits give high values
Compounds without any hit were thinned out: in the full panel of roughly 79,000, 15% have a hit.
experimental_readout: growth inhibition (%)
One number for each entry, in %.

Example entries begin here.
CCC(NC(C)c1ccccc1)C(=O)c1ccc(OCc2ccccc2)c(OCc2ccccc2)c1 (stereo not drawn) :: -8
CN(C)c1ccc(N=Nc2ccccn2)cc1 :: -29
S=C(S)NCC1CCC(CNC(=S)S)CC1 (stereo not drawn) :: 8
O=C1C=CC(=O)N1c1ccc(N2C(=O)C=CC2=O)cc1 :: 32
O=C1C=CC(=O)N1c1ccc(I)cc1 :: 21
CCNc1ccc2c(c1)C(=O)N(OS(C)(=O)=O)C2=O :: 2

Quick one: give me growth inhibition for each item below, same order please.
1. CC(=O)N1C(=O)/C(=C\C(=O)c2ccc([N+](=O)[O-])cc2)c2ccccc21
2. COc1cc([C@@H]2c3cc4c(cc3[C@@H](OC3OC5COC(C)OC5C(O)C3O)[C@H]3COC(=O)[C@H]23)OCO4)cc(OC)c1O (stereo partly drawn)
3. Cc1c2cc[n+](CCN3CCCCC3)cc2c(C)c2c1[nH]c1ccc(O)cc12
4. CCOC(=O)Nc1ccc2c(c1)Cc1ccccc1-2
5. CN(C)CCNc1cccc2sc3ccc(O)cc3c(=O)c12

Result ::
1. 0
2. 0
3. 17
4. -15
5. 4

Could you tell me growth inhibition for each of these compounds? They are listed below.
1. O=Cc1coc2ccccc2c1=O
2. O=S(=O)(c1cc(Cl)ccc1O)c1cc(Cl)ccc1O
3. CC(=O)C1=C(C)O/C(=C/c2cccc(Cl)c2)C1=O

Result ::
1. -23
2. 27
3. -4

For every listed record, write down its growth inhibition.
1. O=C(NCCCCCN1CCC2(CCCCC2)CC1)C(C1CCCCC1)C1CCCCC1
2. Nc1nc(F)nc2c1ncn2C1OC(COP(=O)(O)O)C(O)C1O (stereo not drawn)
3. CC(=O)Oc1ccc(N2C(=O)C3c4[nH]c5ccccc5c4C4CCC(C(C)(C)C)CC4C3C2=O)cc1 (stereo not drawn)
4. Cc1ccc(S(=O)(=O)Nc2ccc3c(c2)C(O)c2ccccc2-3)cc1 (stereo not drawn)
5. Nc1ccc2c(=S)c3ccccc3[nH]c2c1
6. CN(CC(=O)O)c1ccc(/C=C/c2ccnc3ccccc23)cc1
7. NP1(Oc2ccc(F)cc2)=NP(N)(Oc2ccc(F)cc2)=NP(Oc2ccc(F)cc2)(Oc2ccc(F)cc2)=N1 (stereo not drawn)
8. CCc1[nH]nc(C(N)=O)c1N=NN(C)C

Result ::
1. -1
2. 3
3. -14
4. -2
5. 18
6. -1
7. 4
8. -4

Reported growth inhibition for NC(=O)N1c2ccccc2C=Cc2ccccc21 was -39

====

- protocol: NCI Yeast Anticancer Drug Screen. Data for the rad50 strain (AID 155);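 note: 0% = growth of vehicle-only cultures of the same strain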
- experimental_conditions: S. cerevisiae rad50 strain growth inhibition; at 100.0 µM; hits give high values
- Protocol: Growth inhibition of yeast strains with defined genetic alterations is measured as a screen for potential anti-cancer activity. Selected strains with alterations in DNA damage repair or cell cycle control were exposed to compounds and growth inhibition was measured relative to vehicle treated controls. The strain used in this assay is rad50
The panel holds about 79,000 compounds, 15% with a hit somewhere; the sample as a whole holds those more often.
Assignment: determine reported growth inhibition for the given compounds.
Give bare numbers, in %.

These solved cases illustrate the format of a correct answer.
CCc1[nH]nc(C(N)=O)c1N=NN(C)C :: 97
O=C1c2ccccc2CCC1(Br)Br :: 99
CC(=O)N1C(=O)/C(=C\C(=O)c2ccc([N+](=O)[O-])cc2)c2ccccc21 :: 95

Report growth inhibition for each item below.
1. c1ccc(N2N=C3N(c4ccccc4)C2N3c2ccccc2)cc1
2. O=C(NC(=S)Nc1ccccn1)c1ccccc1
3. COc1ccc(N)c2c1C(=O)c1ccccc1C2=O
4. COC(=O)c1n[nH]c(C)c1N=NN(C)CCC#N
5. CCCCC1=NNC(=O)C1
6. S=c1cn[nH]c2ccc(Br)cc12

Result ::
92
-14
96
99
9
85

List growth inhibition for every entry below, keeping the order given.
1. CNc1nc(C)nc2c1cnn2-c1ccc([N+](=O)[O-])cc1
2. BrCc1ccccc1C(c1ccccc1)c1ccccc1
3. O=C(/C=C/c1cccc(Br)c1)c1ccc(Cl)cc1
4. CC(=O)Oc1ccc(C(=O)c2ccccc2)c(O)c1

Result ::
88
93
82
96

====

- protocol: NCI Yeast Anticancer Drug Screen. Data for the mec2-1 strain (AID 157)
- experimental_conditions: S. cerevisiae mec2-1 strain, at 50.0 µM (retest, dose inferred, filed as 5.0)
This is part of a sample that, as a whole, favours compounds with a hit. Of some 79,000 tested, about 15% had one in any assay. The source made the active and inactive calls. Rule as the data show it: active = growth inhibition above about 70%; inactive = the rest.
# valid calls are TRUE = active, FALSE = inactive; nothing else

# example entries with known answers
C/C(=N\NC(=S)NNC(=S)N(C)c1ccccc1)c1ccccn1 :: TRUE
CCC(=O)N(c1ccccc1)C(C)CN1CCC(O)(c2cccc(C(F)(F)F)c2)CC1 (stereo unspecified) :: FALSE
O=Nn1c2ccccc2c2cc([N+](=O)[O-])ccc21 :: TRUE
CC1=CC2C(C(C)C)CC1C1C(=O)OC(=O)C21 (stereo unspecified) :: TRUE

Next item in the queue.
Query :: Assay outcome for CCN1/C(=C/c2ccc3ccccc3[n+]2CC)C=Cc2ccccc21 : what was it?
Result :: TRUE

====

- protocol: NCI Yeast Anticancer Drug Screen. Data for the rad18 strain (AID 177)
- experimental_conditions: S. cerevisiae rad18 mutant growth inhibition; at 3.7 µM; hits give high values
This is part of a sample that, as a whole, favours compounds with a hit. Of some 79,000 tested, about 15% had one in any assay.
experimental_readout: growth inhibition (%)
Answers are plain numbers, in %.

Cc1ccc(I)cc1N=C=S :: 24
COc1ccc(N2CN(C)CSC2=S)cc1 :: -64
CC1=CCCC2C1(C)CCC(C)C2(C)Cc1cc(O)ccc1O (stereo unspecified) :: 24
S=c1[nH]c2c(Cl)c(Cl)c(Cl)c(Cl)c2[nH]1 :: 12
CC(C)(C)[OH+][O-].[O-]c1ccc(Cl)cc1C=Nc1ccc(Cl)cc1[O-].[O]=[V] :: 19
COc1ccc(S(=O)(=O)N/N=C\c2cc([N+](=O)[O-])cc(I)c2O)c(OC)c1OC :: 0
COC(=O)c1ccc2c(c1)Cc1ccccc1-2 :: 1
Clc1nc(C(Cl)Cl)nc2sc3c(c12)CCCC3 :: 13
COc1cc(/C=C/c2sc3ccccc3[n+]2C)ccc1N(C)C :: 5
CCCc1[nH]nc(C(N)=O)c1N=NN(C)C :: 6

Shift focus to the following entry.
growth inhibition measured on O=[N+]([O-])c1c(/C=N/Nc2ccccc2)oc(-c2ccc3c(c2)OCO3)c1-c1ccc2c(c1)OCO2 = -5

====

Answer each item with its documented growth inhibition.
- protocol: NCI Yeast Anticancer Drug Screen. Data for the wt1 strain (AID 149);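 note: 0% = growth of vehicle-treated wt1 cultures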
- experimental_conditions: S. cerevisiae wt1 strain (SPY 50644) growth inhibition; at 11.0 µM; hits give high values
About 79,000 compounds went through this panel and 15% of them were active in at least one assay; those are over-represented in the sample as a whole.
One number for each entry, in %.

For the 6 compounds below, give their growth inhibition values.
1. OCCN(CCO)c1ccc2c(c1)Cc1ccccc1-2
2. Cc1cc(O)c2c(c1O)C(=O)C13C(=C2O)C(=O)C2C(O)C1C1C(O)C3C(=O)C3=C(O)c4c(O)cc(C)c(O)c4C(=O)C321 (centres undefined)
3. CC(=O)[O-].O=C([CH-]C(=O)c1ccccc1)c1ccccc1.O=C([CH-]C(=O)c1ccccc1)c1ccccc1.[Sm+3]
4. N#C/C(=C1C=C/C(=N/O)c2ccccc2/1)c1ccccc1
5. S=C(S)NCC1CCC(CNC(=S)S)CC1 (centres undefined)
6. Cc1ccccc1NC(=O)Cc1csc(N/N=C2\NC(=O)/C(=C/c3cccc([N+](=O)[O-])c3)S2)n1

Result ::
1. 6
2. 38
3. 25
4. -6
5. -5
6. 4
